Hello, the source for this data is patent US9695155B2, in case you need it.

system: rice; assay: Test C flooded paddy test; format: in vivo, Oryza sativa; details: Flood, 125 g ai/ha; scale 0 to 100 (0 no effect, 100 complete control), 13 to 15 days
recordedEndpoint: Plant response rating, Rice
Respond numerically, and do not add a unit to the figure.

Query: Fill in: Plant response rating, Rice of N#Cc1cccc(Oc2ncc(F)cn2)c1-n1cc(Br)cn1 is ___
Response: 15

Query: Consider the molecule shown here: FC(F)c1cccc(Oc2ncc(Br)cn2)c1-n1cc(I)cn1 What is its recorded Plant response rating, Rice?
Response: 0

Query: Entry FC(F)c1cccc(Oc2ncc(Br)cn2)c1-n1cc(Br)cn1 has what Plant response rating, Rice?
Response: 0

Query: Given N#Cc1cnn(-c2c(Oc3ncc(Cl)cn3)cccc2C(F)F)c1 , state its recorded Plant response rating, Rice.
Response: 10

Query: Given the entry FC(F)c1cccc(Oc2ncc(Cl)cn2)c1-n1cc(Br)cn1 , report its measured Plant response rating, Rice.
Response: 10

###

Answer each item with its documented Plant response rating, Sedge, Umbrella.
test system: sedge, umbrella; experiment: Test C flooded paddy test; type: in vivo, Cyperus difformis; conditions: Flood, 31 g ai/ha; scale 0 to 100 (0 no effect, 100 complete control), 13 to 15 days
The answer should be written as a number, with no unit following it.

Query: Param item = FC(F)c1cccc(Oc2ncc(Br)cn2)c1-n1cc(Br)cn1 ; retrieve measured Plant response rating, Sedge, Umbrella.
Response: 0

Query: Item under review: Brc1cnc(Oc2ccccc2-n2cc(Br)cn2)nc1 . Reported Plant response rating, Sedge, Umbrella?
Response: 0

Query: Given the entry FC(F)c1cccc(Oc2ncc(Cl)cn2)c1-n1cc(Br)cn1 , report its measured Plant response rating, Sedge, Umbrella.
Response: 50

###

Please go through the items and note down their Plant response rating, Pigweed.
tested on: pigweed; assay: Test A postemergence; type: in vivo, Amaranthus retroflexus; conditions: 1000 g ai/ha, 0 to 100 scale, 0 no effect, 100 complete control
Text: […]
Reply briefly: the number, and no unit.

Query: Give recorded Plant response rating, Pigweed with pigweed for the following molecule: CC(=NO)c1cn(-c2c(Br)cccc2Oc2ncc(Cl)cn2)nn1
Response: 100

Query: Value wanted: Plant response rating, Pigweed (pigweed) of entry Clc1cnc(Oc2ccccc2-n2ccnn2)nc1
Response: 100

Query: Form field - read-out: Plant response rating, Pigweed; system: pigweed; submitted item: CCOC(=O)c1cn(-c2ccccc2Oc2ncc(Cl)cn2)nn1
Response: 0

Query: # value lookup — system pigweed, readout Plant response rating, Pigweed, item Oc1cccc(Oc2ncc(Cl)cn2)c1-n1cc(Cl)cn1
Response: 60

Query: Plant response rating, Pigweed of CC(C)(C)NS(=O)(=O)c1cnn(-c2ccccc2Oc2ncc(Cl)cn2)c1 on pigweed?
Response: 20

###

tested on: large (Lg) crabgrass; test: Test E preemergence; format: in vivo, Digitaria sanguinalis; details: 62 g ai/ha, scale 0 to 100 (0 no effect, 100 complete control)
recordedEndpoint: Crabgrass, Large plant response rating
Respond using a number only.

Query: What value of measured Crabgrass, Large plant response rating is listed for N#Cc1cccc(Oc2ncc(Br)cn2)c1-n1cc(I)cn1 ?
Response: 65

Query: Which Crabgrass, Large plant response rating is listed for N#Cc1cnn(-c2c(C#N)cccc2Oc2ncc(F)cn2)c1 ?
Response: 90

Query: Value lookup for Crabgrass, Large plant response rating; key = CCOc1cnn(-c2c(C#N)cccc2Oc2ncc(F)cn2)c1
Response: 85

Query: Fill blank: measured Crabgrass, Large plant response rating of the compound N#Cc1cccc(Oc2ncc(F)cn2)c1-n1cc(I)cn1 is ____.
Response: 95

###

system: kochia; assay: Test E preemergence; assay type: in vivo, Kochia scoparia; details: 16 g ai/ha, scale 0 to 100 (0 no effect, 100 complete control)
recordedEndpoint: Kochia plant response rating
Output spec: single numeric token, no unit.

Query: May I ask what Kochia plant response rating has been recorded for N#Cc1cccc(Oc2ncc(Br)cn2)c1-n1cc(C(F)(F)F)cn1 ?
Response: 20

Query: Which Kochia plant response rating value belongs to FC(F)(F)COc1cnn(-c2ccccc2Oc2ncc(Cl)cn2)c1 ?
Response: 60

Query: Kochia plant response rating; subject: N#Cc1cccc(Oc2ncc(Br)cn2)c1-n1cc(I)cn1
Response: 0

Query: Which Kochia plant response rating value is on record for FC(F)(F)c1cnn(-c2ccccc2Oc2ncc(Cl)cn2)c1 ?
Response: 0

Query: For the molecule Clc1cnc(Oc2ccccc2-n2cc(Br)cn2)nc1 , what Kochia plant response rating is on record?
Response: 0

###

test system: giant foxtail; test: Test C postemergence; assay type: in vivo, Setaria faberii; conditions: Postemergence, 62 g ai/ha; scale 0 to 100 (0 no effect, 100 complete control)
Would you kindly list Plant response rating, Foxtail, Giant for each of these molecules?
Answer with the value's number alone.

Query: Field request: Plant response rating, Foxtail, Giant | item: Cc1cnc(Oc2cccc(C#N)c2-n2cc(I)cn2)nc1
Response: 5

Query: What value of Plant response rating, Foxtail, Giant has been reported for the following molecule? N#Cc1cccc(Oc2ncc(Cl)cn2)c1-n1cnc(Br)c1
Response: 5

Query: I am curious: what Plant response rating, Foxtail, Giant value has been reported for N#Cc1cccc(Oc2ncc(Br)cn2)c1-n1cc(I)cn1 ?
Response: 30

Query: Need Plant response rating, Foxtail, Giant of FCc1cccc(Oc2ncc(Br)cn2)c1-n1cc(C(F)(F)F)cn1 , thanks.
Response: 10

Query: What Plant response rating, Foxtail, Giant value was documented for this molecule, N#Cc1cccc(Oc2ncc(F)cn2)c1-n1cc(I)cn1 ?
Response: 15

Query: Quick check: Plant response rating, Foxtail, Giant of Clc1cnc(Oc2cccc(Br)c2-n2cc(Br)nn2)nc1 ?
Response: 5

###

Field: Plant response rating, Rice. Provide a value for each of the molecules that follow.
tested on: rice; test: Test C flooded paddy test; format: in vivo, Oryza sativa; conditions: Flood, 31 g ai/ha; scale 0 to 100 (0 no effect, 100 complete control), 13 to 15 days
Please state the value as a number alone, without comment.

Query: May I ask what Plant response rating, Rice has been recorded for FCc1cccc(Oc2ncc(Br)cn2)c1-n1cc(C(F)(F)F)cn1 [Compound 120] ?
Response: 0

Query: Need Plant response rating, Rice, item N#Cc1cccc(Oc2ncc(F)cn2)c1-n1cc(Br)cn1 [Compound 62]
Response: 15

Query: # query: Plant response rating, Rice of entry Fc1cccc(Oc2ncc(Cl)cn2)c1-n1cc(I)cn1 [Compound 179]
Response: 0

Query: Given the entry N#Cc1cccc(Oc2ncc(Br)cn2)c1-n1cc(C(F)(F)F)cn1 [Compound 59] , report its measured Plant response rating, Rice.
Response: 0

Query: Which Plant response rating, Rice value is on record for Fc1cccc(Oc2ncc(Cl)cn2)c1-n1cc(OCC(F)(F)F)cn1 [Compound 270] ?
Response: 0

###

tested on: pigweed; assay: Test A preemergence; assay type: in vivo, Amaranthus retroflexus; conditions: 500 g ai/ha, 0 to 100 scale where 0 is no effect and 100 is complete control
For each of the compounds below, state its Pigweed plant response rating.
Answer using only a numeral; do not append any unit.

Query: Given COc1ccc(Br)c(-n2cc(Br)cn2)c1Oc1ncc(Cl)cn1 [Compound 201] , state its recorded Pigweed plant response rating.
Response: 0

Query: Please report the recorded Pigweed plant response rating for COc1cnn(-c2c(C#N)cccc2Oc2ncc(Cl)cn2)c1 [Compound 137] .
Response: 100

Query: So what does the record say about Pigweed plant response rating for N#Cc1cccc(Oc2ncc(Br)cn2)c1-n1cccn1 [Compound 165] ?
Response: 90

Query: Item Fc1cccc(Oc2ncc(Cl)cn2)c1-n1cccn1 [Compound 176] has what recorded Pigweed plant response rating?
Response: 100

Query: What value of Pigweed plant response rating has been recorded for this entry: O=Cc1cccc(Oc2ncc(Cl)cn2)c1-n1cc(C(F)(F)F)cn1 [Compound 171]
Response: 100

Query: Name the recorded Pigweed plant response rating for N#Cc1cnc(Oc2cccc(C#N)c2-n2cc(Br)cn2)nc1 [Compound 214] .
Response: 0

Query: Please look up its Pigweed plant response rating: FC(F)(F)c1cnn(-c2c(Cl)cccc2Oc2ncc(Cl)cn2)c1 [Compound 167]
Response: 100

###

test system: large (Lg) crabgrass; test: Test A preemergence; format: in vivo, Digitaria sanguinalis; details: 125 g ai/ha, 0 to 100 scale where 0 is no effect and 100 is complete control
Description: […]
recordedEndpoint: Plant response rating, Crabgrass, Large
No unit in the answer, please; the number alone is enough.

Query: Plant response rating, Crabgrass, Large for CC(C)(C)c1ccn(-c2ccccc2Oc2ncc(Cl)cn2)n1 [Compound 29] ?
Response: 10

Query: Please report the recorded Plant response rating, Crabgrass, Large for Cc1nn(-c2ccccc2Oc2ncc(Cl)cn2)cc1Cl [Compound 38] .
Response: 0

Query: I'd like to know its Plant response rating, Crabgrass, Large. The molecule in question is O=Cc1cccc(Oc2ncc(F)cn2)c1-n1cc(Cl)cn1 [Compound 93]
Response: 0

Query: Any idea what its Plant response rating, Crabgrass, Large is? The molecule is CC(C)(C)c1ccn(-c2ccccc2Oc2ncc(Br)cn2)n1 [Compound 30]
Response: 40

Query: Entry under review: Fc1cnc(Oc2cccc(C(F)F)c2-n2cc(Br)cn2)nc1 [Compound 112] . Reported Plant response rating, Crabgrass, Large?
Response: 100

Query: Look up Plant response rating, Crabgrass, Large for this molecule: Brc1cnc(Oc2ccccc2-n2cc(Br)c(Br)n2)nc1 [Compound 24]
Response: 0

Query: I would be grateful if you could share the reported Plant response rating, Crabgrass, Large for O=Cc1cccc(Oc2ncc(Cl)cn2)c1-n1cc(Br)cn1 [Compound 61] .
Response: 0

Query: Need Plant response rating, Crabgrass, Large of N#Cc1cccc(Oc2ncc(I)cn2)c1-n1cc(Br)cn1 [Compound 60] , thanks.
Response: 40

Query: Recorded Plant response rating, Crabgrass, Large for N#Cc1cccc(Oc2ncc(I)cn2)c1-n1cc(Cl)cn1 [Compound 75] , please?
Response: 70

Query: Quick one: Plant response rating, Crabgrass, Large for Clc1cnc(Oc2ccccc2-n2cc(Br)c(Br)n2)nc1 [Compound 19] ?
Response: 0
